Assay: folding stability dG unfold (combined trypsin and chymotrypsin); higher = more stable
Entries and their folding stability dG unfold values follow.
Give the number; kcal/mol is assumed, so skip it.

SAVVSVDPATGVVTAKVKVDDTELTVTITRDPATGAWPVTFTPPGSGTPVVLDVPFTSVEEAIELAKRLSAG [r14_803_JUSTAS] :: 1.59
SAGGMTLRIVLPEEEAEKLVEELKKIFPGAEIKVKKVEYNEETGEKLVVLEIKFKSKEEAEKAKKLLESAGG [r13_539_TrROS_Hall] :: 3.73
SAGGSAGGSAGGSMIIRIETKDGKIIEIEIKEDEDKTPEEIAKELAKKYNIKKIEIFEPSAGGSAGGSAGGS [r4_116_TrROS_Hall] :: 3.44

So, SAGGSAMQQLDITKTKWDPNTGTLSVTAKDPLTGEVTTYTIPRNGPTLNFPPGAELKSVETEPPPLSAGGSA [r15_959_JUSTAS] ? Its folding stability dG unfold was -0.0792

# folding stability dG unfold of SAGGSAGGSAGGMTVVERTIEVEPDAKVIPLNLPGSNISATVLEYDPETGTLKVKIYVKESAGGSAGGSAGG [r17_198_JUSTAS] = 0.945

Noted for SMTIELTVPSPEELLAALKALADAGIKGAKIRITVTNPDGEEQEIEVDSIEDLEALIESGPVTVRVEIEPSA [r9_589_TrROS_Hall] : its folding stability dG unfold reads 3.05

// recorded folding stability dG unfold for PKEIIEFAKKNGFKVKIEPVKVGSEEKAKKLAEEIKKKNNGKVFIIKNPKTGEAVYRIEIYPLKVPKNKKLS [r1_179_TrMRF] : 1.9

====

folding stability dG unfold values by entry
Experiment: folding stability dG unfold (combined trypsin and chymotrypsin); higher = more stable
Report the figure in kcal/mol without appending any unit label.

SAGGSKPEKIKVVSVEVFPDGLIKVKVKTESGYEATALIVKLPGDKYLIFLTIPANGKPFVFELPASAGGSA [r2_361_TrMRF] :: 2.54
SAGGSAGGSAGGMSTVVEESFYPEERVLRRTTTTVEEEGVTTEPSVYTVEPGDPNVLTPASAGGSAGGSAGG [r7_866_JUSTAS] :: -0.434
SAGGSAGGSAGGSEVEVTTRPDGSIVARVRLPDGGVLTLVAEVGPDGSVVVTEASLSPESAGGSAGGSAGGS [r4_246_TrMRF] :: 1.66

Recorded result, SAGGGSVTVSLEGNTTYVRISREDGPERTYTFPQPNGEPLTFTEAPGRPGLITITRPATGEPVVLALSAGGS [r16_198_JUSTAS] , folding stability dG unfold: 0.219

Notebook: SWYIIRIEIKIRNPKDGKSFDIEIMIHAPVEEAKEIAKEIASMFPGMRVEVKITEVMPMPPMTPEQLEKMSA [r9_421_TrROS] , folding stability dG unfold read as 3.25

Summary for this sequence, SAGGSAGGSAGGPRMTVVDLDPEKGDHLYLVEIPDTNEVVLVSSSELLRLAEAGPVELKGSAGGSAGGSAGG [r7_452_TrMRF] : folding stability dG unfold is 0.129

Given item SAGGSAGGSAWRTIEITWPPSNPEEFIDEISKDFGFTVEGEREPNGYHTIDFQLPPGMKIVSAGGSAGGSAG [r3_457_TrROS] , the value recorded as its folding stability dG unfold is -0.224
